Tested on: Trypanosoma brucei brucei
Assay: Inhibitory activity against Trypanosoma brucei
Type: functional, organism-based
pIC50: −log10 of the molar value.
Label TRUE when pIC50 is at or above 5; anything below gets FALSE.

Look over these answered cases.
compound: Nc1nc(N)nc(CN(CCCNCCCCCCCCCCCCNCCCN(Cc2nc(N)nc(N)n2)Cc2nc(N)nc(N)n2)Cc2nc(N)nc(N)n2)n1
experimental target: Trypanosoma brucei brucei
label value: FALSE

compound: CN(C)c1nc(NCCCNCCCCCCCCCNCCCNc2nc(N(C)C)nc(N(C)C)n2)nc(N(C)C)n1
experimental target: Trypanosoma brucei brucei
label value: FALSE

Input: Please check the record CNc1nc(CN(CCCNCCCCCCCCCCCCNCCCN(Cc2nc(NC)nc(NC)n2)Cc2nc(NC)nc(NC)n2)Cc2nc(NC)nc(NC)n2)nc(NC)n1 and state if its pIC50 is at or above 5.
Output: TRUE

Input: Please check the record CNc1nc(NC)nc(NCCCNCCCCCCCCCCCCNCCCN)n1 and state if its pIC50 is at or above 5.
Output: FALSE

Input: Please check the record CN(C)c1nc(N)nc(NCCCNCCCCCCCCCCCCNCCCNc2nc(N)nc(N(C)C)n2)n1 and state if its pIC50 is at or above 5.
Output: FALSE

Input: Please check the record CNc1nc(N)nc(NCCCNCCCCCCCCCNCCCNc2nc(N)nc(NC)n2)n1 and state if its pIC50 is at or above 5.
Output: FALSE

Input: Please check the record Nc1nc(N)nc(NCCCNC2CCC(NCCCNc3nc(N)nc(N)n3)CC2)n1 (centres undefined) and state if its pIC50 is at or above 5.
Output: FALSE

Input: Please check the record Nc1nc(N)nc(NCCCNC2CCCCC2NCCCNc2nc(N)nc(N)n2)n1 (centres undefined) and state if its pIC50 is at or above 5.
Output: FALSE

Input: Please check the record CN(C)c1nc(NCCCNCCCCCCCCCCCCNCCCN)nc(N(C)C)n1 and state if its pIC50 is at or above 5.
Output: FALSE

Input: Please check the record CNc1nc(N)nc(NCCCNCCCCCCCCCCCCNCCCN)n1 and state if its pIC50 is at or above 5.
Output: FALSE

Input: Please check the record Nc1nc(N)nc(NCCCNCCCCNCCCNc2nc(N)nc(N)n2)n1 and state if its pIC50 is at or above 5.
Output: FALSE

Input: Please check the record Nc1nc(N)nc(CN(CCCNCCCCCCCCCNCCCN(Cc2nc(N)nc(N)n2)Cc2nc(N)nc(N)n2)Cc2nc(N)nc(N)n2)n1 and state if its pIC50 is at or above 5.
Output: FALSE

Input: Please check the record CNc1nc(NC)nc(NCCCNCCCCCCCCCCCCNCCCNc2nc(NC)nc(NC)n2)n1 and state if its pIC50 is at or above 5.
Output: FALSE

Input: Please check the record CN(C)c1nc(NCCCNCCCCCCCCCCCCNCCCNc2nc(N(C)C)nc(N(C)C)n2)nc(N(C)C)n1 and state if its pIC50 is at or above 5.
Output: TRUE

Input: Please check the record CN(C)c1nc(N)nc(NCCCNCCCCCCCCCCCCNCCCN)n1 and state if its pIC50 is at or above 5.
Output: FALSE

Input: Please check the record CNc1nc(N)nc(NCCCNCCCCCCCCCCCCNCCCNc2nc(N)nc(NC)n2)n1 and state if its pIC50 is at or above 5.
Output: TRUE
